System: Staphylococcus aureus
ASSAY_NOTES: In vitro antibacterial activity against Staphylococcus aureus 209P JC-1
Type: functional
CONDITION_SET: Staphylococcus aureus; read-out: MIC
MEASURE_NAME: MIC (mg/L)

INSERT INTO measurements (molecule, study_target, measure_name, numeric_readout) VALUES
  ('CC1COc2c(N3CCN(C)CC3)c(F)cc3c(=O)c(C(=O)O)cn1c23 (stereo not drawn) [OFLOXACIN]', 'Staphylococcus aureus', 'MIC', 0.39),
  ('CC1Sc2c(C(=O)O)c(=O)c3cc(F)c(N4CCCNCC4)cc3n21 (stereo not drawn)', 'Staphylococcus aureus', 'MIC', 0.1),
  ('O=C(O)c1c2n(c3cc(N4CCNCC4)c(Cl)cc3c1=O)CS2', 'Staphylococcus aureus', 'MIC', 0.2),
  ('CN1CCN(c2cc3c(cc2F)c(=O)c(C(=O)O)c2n3CS2)CC1', 'Staphylococcus aureus', 'MIC', 0.05),
  ('O=C(O)c1c2n(c3cc(N4CCNCC4)c(F)cc3c1=O)C(c1ccccc1)S2 (stereo not drawn)', 'Staphylococcus aureus', 'MIC', 0.2);

[I] CCC1Sc2c(C(=O)O)c(=O)c3cc(F)c(N4CCN(C)CC4)cc3n21 (stereo not drawn)
[II] CN1CCN(c2cc3c(cc2F)c(=O)c(C(=O)O)c2n3C(c3ccccc3)S2)CC1 (stereo not drawn)
# input Please let me know which one, I or II , has a lower measured MIC value. Refer to your chosen item by its label in the answer.
# output I
